- experimental_target: p110 δ (RAJI cells) (Homo sapiens (Human), UniProt O00329)
- Sequence (O00329 whole entry): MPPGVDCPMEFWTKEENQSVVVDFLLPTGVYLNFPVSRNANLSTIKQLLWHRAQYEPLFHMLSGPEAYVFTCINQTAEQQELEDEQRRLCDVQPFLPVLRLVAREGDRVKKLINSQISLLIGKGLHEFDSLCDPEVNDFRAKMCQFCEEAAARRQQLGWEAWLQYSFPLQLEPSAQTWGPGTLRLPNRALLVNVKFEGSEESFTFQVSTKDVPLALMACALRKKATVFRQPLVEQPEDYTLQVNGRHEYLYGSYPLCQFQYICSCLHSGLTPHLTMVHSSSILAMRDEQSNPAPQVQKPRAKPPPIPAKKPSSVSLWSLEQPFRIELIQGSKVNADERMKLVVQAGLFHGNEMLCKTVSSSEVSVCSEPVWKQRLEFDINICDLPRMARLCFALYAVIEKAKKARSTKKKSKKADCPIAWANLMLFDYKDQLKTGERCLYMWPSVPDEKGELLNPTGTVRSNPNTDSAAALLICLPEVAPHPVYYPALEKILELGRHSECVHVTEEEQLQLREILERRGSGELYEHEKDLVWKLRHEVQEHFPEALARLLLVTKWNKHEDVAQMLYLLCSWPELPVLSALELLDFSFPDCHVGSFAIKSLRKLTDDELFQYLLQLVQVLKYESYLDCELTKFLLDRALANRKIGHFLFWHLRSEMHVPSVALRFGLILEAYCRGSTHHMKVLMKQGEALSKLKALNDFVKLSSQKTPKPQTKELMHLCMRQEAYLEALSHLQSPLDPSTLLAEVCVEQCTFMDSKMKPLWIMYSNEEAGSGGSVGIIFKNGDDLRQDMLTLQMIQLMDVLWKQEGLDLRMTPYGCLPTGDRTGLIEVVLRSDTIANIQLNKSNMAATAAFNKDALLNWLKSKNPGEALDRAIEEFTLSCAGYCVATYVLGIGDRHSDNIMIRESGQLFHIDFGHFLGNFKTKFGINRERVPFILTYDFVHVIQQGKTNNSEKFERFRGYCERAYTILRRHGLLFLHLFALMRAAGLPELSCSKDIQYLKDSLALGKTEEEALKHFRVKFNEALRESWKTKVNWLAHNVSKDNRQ
- Sequence (P27986 whole entry partner): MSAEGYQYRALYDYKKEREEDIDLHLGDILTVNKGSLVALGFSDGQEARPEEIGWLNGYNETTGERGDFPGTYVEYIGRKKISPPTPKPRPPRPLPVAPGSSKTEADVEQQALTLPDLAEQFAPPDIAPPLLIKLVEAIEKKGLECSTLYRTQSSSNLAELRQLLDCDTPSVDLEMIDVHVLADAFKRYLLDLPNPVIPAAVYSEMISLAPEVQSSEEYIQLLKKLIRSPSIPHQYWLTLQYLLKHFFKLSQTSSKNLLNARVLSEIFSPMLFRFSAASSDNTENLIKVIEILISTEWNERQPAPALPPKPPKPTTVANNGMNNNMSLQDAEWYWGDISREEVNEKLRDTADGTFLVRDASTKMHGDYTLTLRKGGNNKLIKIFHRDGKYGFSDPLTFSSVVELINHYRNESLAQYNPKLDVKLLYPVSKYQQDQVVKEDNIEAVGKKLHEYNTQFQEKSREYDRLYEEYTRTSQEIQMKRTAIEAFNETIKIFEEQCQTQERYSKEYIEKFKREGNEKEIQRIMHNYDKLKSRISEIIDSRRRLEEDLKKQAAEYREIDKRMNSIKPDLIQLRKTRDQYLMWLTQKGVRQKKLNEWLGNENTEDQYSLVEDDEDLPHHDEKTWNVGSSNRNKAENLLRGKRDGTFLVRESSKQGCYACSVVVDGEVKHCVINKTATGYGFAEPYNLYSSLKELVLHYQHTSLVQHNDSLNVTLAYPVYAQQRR
- protocol_summary: PI3K-δ selective cellular assay: phospho-AKT in anti-human IgM stimulated RAJI cells
- condition_info: serum-starved RAJI cells stimulated with anti-human IgM
measure: IC50

For orientation, consider the following solved cases.
C[C@H](NC(=O)c1c(N)nn2cccnc12)c1cc2cccc(Cl)c2c(=O)n1-c1ccc(S(C)(=O)=O)cc1 0.5 to 1 µM
C[C@H](NC(=O)c1c(N)nn2cccnc12)c1oc2ccc(F)cc2c(=O)c1-c1ccccc1 0.1 to 0.5 µM

Next compound, please.
Given the entry Cc1ccccc1-n1c([C@H](C)NC(=O)c2c(N)nn3cccnc23)cc2cccc(Cl)c2c1=O , what IC50 was observed with p110 δ (RAJI cells) (Homo sapiens (Human), UniProt O00329)?
0.01 to 0.1 µM
